Data provenance is patent US20130142788A1.

Biological target: T1, recombinant mature dimeric myostatin (human and mouse (mature sequences 100% …, UniProt O08689 268-376))
T1 construct: also called GDF-8; mature myostatin
T1 sequence: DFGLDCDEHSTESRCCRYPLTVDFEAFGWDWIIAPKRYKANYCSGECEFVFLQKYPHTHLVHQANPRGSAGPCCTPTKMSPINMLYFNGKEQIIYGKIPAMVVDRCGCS
Test: ActRIIb neutralisation ELISA: inhibition of 2 nM biotinylated myostatin binding to coated ActRIIb
# reported pIC50; entries follow
Reminder that pIC50 is minus the log10 of a molar concentration.

Record excerpt, results attached:
{"columns": ["binder", "value type", "measured number"],
 "data": [
  ["H9L5 (antibody, IgG1, V domains shown, Humanised IgG1/kappa) VH: QVQLVQSGAEVKKPGASVKISCKASGYSFTGYFMHWVRQAPGQGLEWIGNIYPYNSVSNYNQRFKAKATLTVDKSTSTAYMELRSLRSDDTAVYYCARRYYYGTGPADWYYDVWGQGTLVTVSS VL: DIQMTQSPSSLSASVGDRVTITCKASQDINSYLSWFQQKPGKAPKTLIYRANRLVDGVPSKFSGSGSGTDYTLTISSLQPEDFATYYCLQSDEFPLTFGQGTKLEIKR", "pIC50", 9.85],
  ["H5L4 (antibody, IgG1, V domains shown, Humanised IgG1/kappa) VH: QVQLVQSGAEVKKPGASVKVSCKASGYSFTGYFMHWVRQAPGQGLEWIGNIYPYNGVSNYNQRFKARATLTVDKSTSTAYMELRSLRSDDTAVYYCARRYYYGTGPADWYYDVWGQGTLVTVSS VL: DIQMTQSPSSLSASVGDRVTITCKASQDINSYLSWFQQKPGKAPKSLIYRANRLVDGVPSKFSGSGSGQDYTLTISSLQPEDFATYYCLQSDEFPLTFGQGTKLEIKR", "pIC50", 9.68],
  ["H3L6 (antibody, IgG1, V domains shown, Humanised IgG1/kappa) VH: QVQLVQSGAEVKKPGASVKVSCKASGYSFTGYFMHWVRQAPGQGLEWIGNIYPYNGVSNYNQRFKARATLTTDTSTSTAYMELRSLRSDDTAVYYCARRYYYGTGPADWYYDVWGQGTLVTVSS VL: DIQMTQSPSSLSASVGDRVTITCKASQDINSYLSWFQQKPGKAPKTLIYRANRLVDGVPSKFSGSGSGQDYTLTISSLQPEDFATYYCLQSDEFPLTFGQGTKLEIKR", "pIC50", 8.52],
  ["H4L4 (antibody, IgG1, V domains shown, Humanised IgG1/kappa) VH: QVQLVQSGAEVKKPGASVKVSCKASGYSFTGYFMHWVRQAPGQGLEWMGNIYPYNGVSNYNQRFKARVTMTVDKSTSTAYMELRSLRSDDTAVYYCARRYYYGTGPADWYYDVWGQGTLVTVSS VL: DIQMTQSPSSLSASVGDRVTITCKASQDINSYLSWFQQKPGKAPKSLIYRANRLVDGVPSKFSGSGSGQDYTLTISSLQPEDFATYYCLQSDEFPLTFGQGTKLEIKR", "pIC50", 9.40]
]}

Now consider a different binder.
pIC50 recorded for this binder, H3L5 (antibody, IgG1, V domains shown, Humanised IgG1/kappa) VH: QVQLVQSGAEVKKPGASVKVSCKASGYSFTGYFMHWVRQAPGQGLEWIGNIYPYNGVSNYNQRFKARATLTTDTSTSTAYMELRSLRSDDTAVYYCARRYYYGTGPADWYYDVWGQGTLVTVSS VL: DIQMTQSPSSLSASVGDRVTITCKASQDINSYLSWFQQKPGKAPKTLIYRANRLVDGVPSKFSGSGSGTDYTLTISSLQPEDFATYYCLQSDEFPLTFGQGTKLEIKR , is 8.97
